Target: human Cot catalytic domain (30-397 amino acids) (Homo sapiens)
Construct: Purified recombinant human Cot catalytic domain (30-397 amino acids) was purchased from Cama Biosciences; purchased Cama Biosciences (so in the source)
Sequence (P41279 30-397): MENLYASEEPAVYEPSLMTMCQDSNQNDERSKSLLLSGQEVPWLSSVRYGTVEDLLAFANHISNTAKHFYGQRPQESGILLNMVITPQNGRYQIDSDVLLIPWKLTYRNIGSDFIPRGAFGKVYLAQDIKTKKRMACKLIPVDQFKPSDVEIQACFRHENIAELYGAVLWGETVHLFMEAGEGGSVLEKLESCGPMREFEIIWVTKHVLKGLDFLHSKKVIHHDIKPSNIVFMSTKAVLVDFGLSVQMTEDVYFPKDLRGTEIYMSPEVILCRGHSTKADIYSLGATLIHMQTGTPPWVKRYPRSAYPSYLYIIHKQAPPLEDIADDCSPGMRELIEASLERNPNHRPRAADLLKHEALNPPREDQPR
Test: High Throughput Cot Biochemical Assay (KinEASE TR-FRET)
Conditions: Cot KinEASE TR-FRET, 400 μM ATP; read-out: IC50 HTRF
MEASURED_QUANTITY: log10 IC50 (log10 of the value in nM)

[
  {
    "COMPOUND": "N#Cc1cnc2c(Cl)cc(NC(c3ccc(F)cc3)c3ncco3)cc2c1Nc1ccc(F)c(Cl)c1 (stereo not shown)",
    "TEST_TARGET": "human Cot catalytic domain (30-397 amino acids) (Homo sapiens)",
    "log10 IC50": 2.46
  },
  {
    "COMPOUND": "N#Cc1cnc2c(Cl)cc(N[C@@H](c3ccc(F)cc3)c3cn(C4CN5CCC4CC5)nn3)cc2c1Nc1ccc(F)c(Cl)c1 (stereo partly shown)",
    "TEST_TARGET": "human Cot catalytic domain (30-397 amino acids) (Homo sapiens)",
    "log10 IC50": 0.78
  },
  {
    "COMPOUND": "Cc1c(-c2cccnc2)cccc1[C@H](Nc1cc(Cl)c2ncc(C#N)c(NCC(C)(C)C)c2c1)c1cn(C2(C(F)(F)F)CC2)nn1",
    "TEST_TARGET": "human Cot catalytic domain (30-397 amino acids) (Homo sapiens)",
    "log10 IC50": 1.00
  },
  {
    "COMPOUND": "COC(=O)c1cccc([C@@H](c2cn(C3CCN(C(C)(C)C)CC3)nn2)N(C)c2cc(Cl)c3ncc(C#N)c(Nc4ccc(F)c(Cl)c4)c3c2)c1",
    "TEST_TARGET": "human Cot catalytic domain (30-397 amino acids) (Homo sapiens)",
    "log10 IC50": 3.30
  },
  {
    "COMPOUND": "CC(C)(C)CNc1c(C#N)cnc2c(C#N)cc(N[C@H](c3cn(C4(C(N)=O)CCOC4)nn3)c3ccccc3Cl)cc12 (stereo partly shown)",
    "TEST_TARGET": "human Cot catalytic domain (30-397 amino acids) (Homo sapiens)",
    "log10 IC50": 0.85
  },
  {
    "COMPOUND": "[2H][C@](Nc1cc(C#N)c2ncc(C#N)c(NCC(C)(C)C)c2c1)(c1cn(C2(C#N)CC2)nn1)c1ccccc1Cl",
    "TEST_TARGET": "human Cot catalytic domain (30-397 amino acids) (Homo sapiens)",
    "log10 IC50": 0.70
  },
  {
    "COMPOUND": "Cc1c([C@H](Nc2cc(C#N)c3ncc(C#N)c(NCC(C)(C)C)c3c2)c2cn(C3(C(F)F)CC3)nn2)cccc1-n1ccnc1",
    "TEST_TARGET": "human Cot catalytic domain (30-397 amino acids) (Homo sapiens)",
    "log10 IC50": 0.30
  },
  {
    "COMPOUND": "CC[C@@H](Nc1c(C#N)cnc2c(Br)cc(N[C@@H](c3cccc(C(N)=O)c3)c3cn(C4CC4)nn3)cc12)c1ccccc1",
    "TEST_TARGET": "human Cot catalytic domain (30-397 amino acids) (Homo sapiens)",
    "log10 IC50": 0.00
  },
  {
    "COMPOUND": "[2H][C@](Nc1cc(Cl)c2ncc(C#N)c(NCC(C)(C)C)c2c1)(c1ccc(Cl)cc1)c1cn(C23CCN(CC2)CC3)nn1",
    "TEST_TARGET": "human Cot catalytic domain (30-397 amino acids) (Homo sapiens)",
    "log10 IC50": 1.84
  },
  {
    "COMPOUND": "COc1cccc(C(Nc2cc(Cl)c3ncc(C#N)c(Nc4ccc(F)c(Cl)c4)c3c2)c2cn(C3CCNCC3)nn2)c1 (stereo not shown)",
    "TEST_TARGET": "human Cot catalytic domain (30-397 amino acids) (Homo sapiens)",
    "log10 IC50": 0.85
  },
  {
    "COMPOUND": "Cc1c([C@H](Nc2cc(Cl)c3ncc(C#N)c(NCC(C)(C)C)c3c2)c2cn(C3(C(F)F)CC3)nn2)cccc1-n1cncn1",
    "TEST_TARGET": "human Cot catalytic domain (30-397 amino acids) (Homo sapiens)",
    "log10 IC50": 0.30
  },
  {
    "COMPOUND": "Cc1c(-c2cncn2C)cccc1[C@H](Nc1cc(C#N)c2ncc(C#N)c(NCC(C)(C)C)c2c1)c1cn(C2(C(F)(F)F)CC2)nn1",
    "TEST_TARGET": "human Cot catalytic domain (30-397 amino acids) (Homo sapiens)",
    "log10 IC50": 0.30
  },
  {
    "COMPOUND": "CC(C)(C)CNc1c(C#N)cnc2c(F)cc(N[C@H](c3cn(C4(C#N)CC4)nn3)c3ccccc3Cl)cc12",
    "TEST_TARGET": "human Cot catalytic domain (30-397 amino acids) (Homo sapiens)",
    "log10 IC50": 1.76
  },
  {
    "COMPOUND": "[2H][C@](Nc1cc(C#N)c2ncc(C#N)c(NCC(C)(C)C)c2c1)(c1cccc(C#N)c1)c1cn(C2(CF)CC2)nn1",
    "TEST_TARGET": "human Cot catalytic domain (30-397 amino acids) (Homo sapiens)",
    "log10 IC50": 0.30
  },
  {
    "COMPOUND": "[2H][C@](Nc1cc(Cl)c2ncc(C#N)c(Nc3cccc(Cl)c3C(C)=O)c2c1)(c1ccc(F)cc1)c1cn(C2CC2)nn1",
    "TEST_TARGET": "human Cot catalytic domain (30-397 amino acids) (Homo sapiens)",
    "log10 IC50": 2.87
  },
  {
    "COMPOUND": "Cc1ccccc1[C@H](Nc1cc(C#N)c2ncc(C#N)c(NCC(C)(C)C)c2c1)c1cn(C2(C(F)(F)F)CC2)nn1",
    "TEST_TARGET": "human Cot catalytic domain (30-397 amino acids) (Homo sapiens)",
    "log10 IC50": 1.23
  },
  {
    "COMPOUND": "CC(C)(C)CNc1c(C#N)cnc2c(C#N)cc(N[C@@H](c3ccccc3)c3cn(C45CC(C4)C5)nn3)cc12",
    "TEST_TARGET": "human Cot catalytic domain (30-397 amino acids) (Homo sapiens)",
    "log10 IC50": 0.60
  },
  {
    "COMPOUND": "CC[C@@H](Nc1c(C#N)cnc2c(C#N)cc(N[C@@H](c3cccc(-c4ncco4)c3)c3cn(C4CC4)nn3)cc12)c1ccccc1",
    "TEST_TARGET": "human Cot catalytic domain (30-397 amino acids) (Homo sapiens)",
    "log10 IC50": 0.00
  },
  {
    "COMPOUND": "CC(C)(C)CNc1c(C#N)cnc2c(C#N)cc(N[C@@H](c3ccc(F)cc3)c3cn(C4(C(N)=O)CC4)nn3)cc12",
    "TEST_TARGET": "human Cot catalytic domain (30-397 amino acids) (Homo sapiens)",
    "log10 IC50": 0.78
  },
  {
    "COMPOUND": "Cc1c(-c2cnn(C)c2)cccc1[C@H](Nc1cc(Cl)c2ncc(C#N)c(NCC(C)(C)C)c2c1)c1cn(C2(C(F)F)CC2)nn1",
    "TEST_TARGET": "human Cot catalytic domain (30-397 amino acids) (Homo sapiens)",
    "log10 IC50": 0.60
  },
  {
    "COMPOUND": "Cc1c(C#N)cccc1[C@H](Nc1cc(Cl)c2ncc(C#N)c(NCC(C)(C)C)c2c1)c1cn(C2(C(F)F)CC2)nn1",
    "TEST_TARGET": "human Cot catalytic domain (30-397 amino acids) (Homo sapiens)",
    "log10 IC50": 0.48
  },
  {
    "COMPOUND": "Cc1c(-c2cnn(C)c2)cccc1[C@H](Nc1cc(Cl)c2ncc(C#N)c(NCC(C)(C)C)c2c1)c1cn(C2(C(F)(F)F)CC2)nn1",
    "TEST_TARGET": "human Cot catalytic domain (30-397 amino acids) (Homo sapiens)",
    "log10 IC50": 0.95
  },
  {
    "COMPOUND": "Cc1cc(F)ccc1[C@H](Nc1cc(C#N)c2ncc(C#N)c(NCC(C)(C)C)c2c1)c1cn(C2(C(F)F)CC2)nn1",
    "TEST_TARGET": "human Cot catalytic domain (30-397 amino acids) (Homo sapiens)",
    "log10 IC50": 1.11
  }
]
